pIC50: −log10 of the molar value.
Observed pIC50, system Aldo-keto reductase family 1 member B1 (Rattus norvegicus).
reported endpoint: pIC50

Take a look at these entries with their results.
compound: COc1c(-c2ccc(O)c(O)c2)oc2c(OC)c(O)cc(O)c2c1=O
reported endpoint: pIC50
test value: 6.62

compound: COc1c(O)cc(O)c2c(=O)cc(-c3ccc(O)c(O)c3)oc12
reported endpoint: pIC50
test value: 6.55

compound: C[C@H]1OC(Oc2c(-c3ccc(O)c(O)c3)oc3cc(O)cc(O)c3c2=O)[C@@H](O)[C@@H](O)[C@@H]1O (stereo not given in full)
reported endpoint: pIC50
test value: 5.93

(I) COc1cc2oc(-c3ccc(O)cc3)cc(=O)c2c(O)c1OC
(II) COc1c(OC(C)=O)c(OC(C)=O)c(OC(C)=O)c2c(=O)cc(-c3ccc(OC(C)=O)c(OC(C)=O)c3)oc12
Identify the entry with the larger pIC50. Options: I and II # respond with the chosen item's label
II
(II: 6.52, I: 5.85)
